Provide the recorded GLP1R EC50 human for the entries that follow.
# SUBJECT_OF_TEST: human GLP-1 receptor (GLP1R) (human, UniProt P43220 24-463)
# MEASUREMENT_NOTES: cell-based or functional assay
Numbered stars: 1 amine (or outer) side, 2 acyl side, 3 side chain; on linkers, the order of the positions; unused ones are H or OH. Square brackets hold non-standard residues; d marks the D form. Side chains are listed from the residue outwards. Ends that are not written are not given here. Phe(4-CH2NH2) = NCc1ccc(C[C@H](N)C(=O)O)cc1; γGlu = O=C(O)[C@H](CCC(=O)[*:2])N[*:1]; AEEA = NCCOCCOCC(=O)O; Aib = CC(C)(N)C(=O)O
Answer with a number only, understood to be in nM.

In plain terms, H[Aib]QGTFTSD[Phe(4-CH2NH2)]([AEEA-AEEA-γGlu-C20‑OH])SKYLD[Aib]RAAQDFVQWLLATK-{γGlu-NH2} [TP582] has a documented GLP1R EC50 human of 2.57

In plain terms, HXQGTFTSDYSKYLDSRAAXDFVQWLXDT (Aib (U) at 2; K(PEG2PEG2γEC20-OH) at 20; L-methionine sulphone (2) at 27; C-terminal amide) [TP577] has a documented GLP1R EC50 human of 1.67

In plain terms, HXQGTFTSDYSKYLDARAAXXFVQWLXDT (Aib (U) at 2; K(PEG2PEG2γEC20-OH) at 20; αMD at 21; L-methionine sulphone (2) at 27; C-terminal amide) [TP594] has a documented GLP1R EC50 human of 2.6
